Target: T1, Pellino 2 FHA (PELI2 residues 15-275) (human, UniProt Q9HAT8 15-275)
T1 construct: Cloned into pGEX-6P1; also called PELI2 (15–273); N-terminal PELI2 fragment; source: E. coli BL21 (DE3), purified (Glutathione Sepharose, 3C cleavage, gel filtration); not shown: GST, N-terminal, cleaved
T1 sequence (looked up): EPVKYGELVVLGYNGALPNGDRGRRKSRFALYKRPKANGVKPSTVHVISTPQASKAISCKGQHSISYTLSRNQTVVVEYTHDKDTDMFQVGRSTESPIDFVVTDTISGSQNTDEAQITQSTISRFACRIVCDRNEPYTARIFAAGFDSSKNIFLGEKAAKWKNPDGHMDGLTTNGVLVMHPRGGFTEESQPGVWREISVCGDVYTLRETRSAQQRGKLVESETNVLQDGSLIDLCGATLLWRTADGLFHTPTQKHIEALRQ
Test: ITC; peptide in the syringe (typically 160 μM), protein in the cell (16 μM); 25 mM HEPES pH 7.0, 200 mM NaCl, 1 mM TCEP; single-site binding model
Conditions: both partners purified
Square brackets hold non-standard residues; d marks the D form. pT = C[C@@H](OP(=O)(O)O)[C@H](N)C(=O)O
property_label: dH (kJ/mol)
Note: unit kJ/mol is implicit; provide only the numeric part.

What value of measured dH is listed for Ac-AYEVLA[pT]QPFC-NH2 (SMILES CC(=O)N[C@@H](C)C(=O)N[C@@H](Cc1ccc(O)cc1)C(=O)N[C@@H](CCC(=O)O)C(=O)N[C@H](C(=O)N[C@@H](CC(C)C)C(=O)N[C@@H](C)C(=O)N[C@H](C(=O)N[C@@H](CCC(N)=O)C(=O)N1CCC[C@H]1C(=O)N[C@@H](Cc1ccccc1)C(=O)N[C@@H](CS)C(N)=O)[C@@H](C)OP(=O)(O)O)C(C)C, two N-terminal residues that are not the MDC1 residues at this place; human MDC1, stretch around T752; Natural stretch with two added N-terminal residues (AY); source: synthetic peptide) [MDC1-pT752 phosphopeptide for ITC (AYEVLApTQPFC)] ? -118
